# key: entry, value: inhibition
Subject of test: Amyloid-beta precursor protein (Homo sapiens)
Assay procedure: Inhibition of human amyloid-beta (1 to 42 residues) oligomer at 1:1 protein to compound ratio after 2 hrs by ELISA
Run parameters: concentration not given here

Observe how each entry below is paired with its result.
INSERT INTO results (smiles_code, observed_measurement) VALUES
  ('COc1ccc2[nH]c3c(-c4ccccc4)nccc3c2c1', '58%'),
  ('Fc1ccc(-c2nccc3c2[nH]c2ccccc23)cc1', '22%'),
  ('Cc1ccc2[nH]c3c(-c4ccc(C(F)(F)F)cc4)nccc3c2c1', '82%'),
  ('c1ccc(-c2nccc3c2[nH]c2ccccc23)cc1', '79%'),
  ('c1ccc2c(c1)[nH]c1c(C3CCCCC3)nccc12', '30%');

For the compound shown here, c1ccc2c(-c3nccc4c3[nH]c3ccccc34)cccc2c1 , give the reported inhibition.
58%

Requested read-out: inhibition. Entry: COc1ccc2[nH]c3c(C(=O)c4ccc(F)cc4)nccc3c2c1
82%

Looking for the measured inhibition of Cc1ccc2[nH]c3c(-c4ccccc4)nccc3c2c1 , can you help?
6%

Would you kindly share the measured inhibition for Cc1ccccc1-c1nccc2c1[nH]c1ccccc12 ?
45%

Please give the measured inhibition for this compound: COc1ccc2[nH]c3c(-c4ccc(C)cc4)nccc3c2c1
63%

# inhibition lookup, item COc1ccc2[nH]c3c(C(=O)c4ccc(C(F)(F)F)cc4)nccc3c2c1
84%

Where these numbers come from: ChEMBL document CHEMBL3870350
